Answer each item with its documented pKd.
- tested_target: Carbonic anhydrase 2 (Homo sapiens, UniProt P00918)
- run_description: Binding affinity to recombinant human CA2 by DSF-based fluorescence thermal shift assay
Give bare numbers, as −log10 of the molar value.

Worked cases, answers included:
>  <molecule>
NS(=O)(=O)c1ccc(NC(=O)C2CC(=O)N(c3ccccc3Br)C2)cc1 (stereo not given)

>  <tested_target>
Carbonic anhydrase 2 (Homo sapiens, UniProt P00918)

>  <pKd>
7.06

$$$$
>  <molecule>
NS(=O)(=O)c1ccc(N2CC(C(=O)N/N=C/c3ccccc3)CC2=O)cc1 (stereo not given)

>  <tested_target>
Carbonic anhydrase 2 (Homo sapiens, UniProt P00918)

>  <pKd>
6.77

$$$$
>  <molecule>
Cc1cc(N2CC(C(=O)NNC(=S)Nc3ccccc3)CC2=O)c(Cl)c(C)c1S(N)(=O)=O (stereo not given)

>  <tested_target>
Carbonic anhydrase 2 (Homo sapiens, UniProt P00918)

>  <pKd>
7.49

$$$$
>  <molecule>
Cc1cc(C)n(C(=O)C2CC(=O)N(c3cc(C)c(S(N)(=O)=O)c(C)c3Cl)C2)n1 (stereo not given)

>  <tested_target>
Carbonic anhydrase 2 (Homo sapiens, UniProt P00918)

>  <pKd>
7.60

$$$$
>  <molecule>
Cc1cc(N2CC(C(=O)NN3CC(C(=O)O)CC3=O)CC2=O)cc(C)c1S(N)(=O)=O (stereo not given)

>  <tested_target>
Carbonic anhydrase 2 (Homo sapiens, UniProt P00918)

>  <pKd>
5.15

$$$$
>  <molecule>
Cc1cc(N2CC(C(=O)NN)CC2=O)cc(C)c1S(N)(=O)=O (stereo not given)

>  <tested_target>
Carbonic anhydrase 2 (Homo sapiens, UniProt P00918)

>  <pKd>
4.96

$$$$

Parameter requested: pKd. Apply to each item below.
1. Cc1cc(S(N)(=O)=O)c(C)cc1N1CC(C(=O)N/N=C/c2ccccc2)CC1=O (stereo not given)
2. NNC(=O)C1CC(=O)N(c2ccc(S(N)(=O)=O)cc2)C1 (stereo not given)
3. Cc1cc(N2CC(C(=O)N/N=C/c3ccc(Br)cc3)CC2=O)cc(C)c1S(N)(=O)=O (stereo not given)

-- reply
[5.89, 6.30, 5.54]
